The values you see were collected from PubChem BioAssay AID1963983.

Listed compounds paired with reported IC50
tested on: 186277-243-T-J2-PDC multi-cell spheroid viability; experiment: Anticancer human tumor 186277-243-T-J2-PDC patient-derived colon adenocarcinoma cell line growth inhibition [PI3K]; settings: curve of first compound; second compound 3.16 µM;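 also: spheroids exposed to compounds for seven days before viability reading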

Given CCCS(=O)(=O)Nc1ccc(F)c(C(=O)c2c[nH]c3ncc(-c4ccc(Cl)cc4)cc23)c1F + Cc1nc(NC(=O)N2CCCC2C(N)=O)sc1-c1ccnc(C(C)(C)C(F)(F)F)c1 , respond with its IC50.
4260 nM

For CC1(C)CCC(Nc2ncc(C(F)(F)F)c(-c3c[nH]c4c(P(C)(C)=O)c(C#N)ccc34)n2)CN1 (stereo not given) + Cc1nc(NC(=O)N2CCCC2C(N)=O)sc1-c1ccnc(C(C)(C)C(F)(F)F)c1 , write its IC50.
< 31.6 nM
